target: Human immunodeficiency virus type 1 protease (Human immunodeficiency virus 1, UniProt Q72874)
Attribute measured: Ki (nM)
// return numeric value only (unit: nM, not printed)

Task: Ki for COc1ccc(CN[C@@H](C(=O)N[C@H]2c3ccccc3CC2O)[C@H](O)[C@H](Cc2ccccc2)NC(=O)OC(C)(C)C)cc1 (stereo partly drawn) ?
Output: 148

Task: Recorded Ki for Cc1cn(CCO)c(=O)n(CCOC(=O)[C@@H](NC(=O)[C@H](NCc2ccccc2)[C@H](O)[C@H](Cc2ccccc2)NC(=O)[C@@H](NC(=O)OCc2ccccc2)C(C)C)C(C)C)c1=O , please?
Output: 550

Task: Consider the compound shown here: COc1cccc(CN[C@@H](C(=O)N[C@H](C(=O)NCc2nc3ccccc3[nH]2)C(C)C)[C@H](O)[C@H](Cc2ccccc2)NC(=O)[C@@H](NC(=O)OCc2ccccc2)C(C)C)c1 What is its recorded Ki?
Output: 9.77

###

biological target: Human immunodeficiency virus type 1 protease (Human immunodeficiency virus 1)
// returns not met unless Ki is strictly below 100 nM, in which case met

Previously resolved entries follow.
COc1ccc(CN[C@@H](C(=O)N[C@H]2c3ccccc3CC2O)[C@H](O)[C@H](Cc2ccccc2)NC(=O)[C@@H](NC(=O)OC(C)(C)C)C(C)(C)C)cc1 (stereo partly specified) :: not met
CC(C)(C)[C@H](NC(=O)OCc1ccccc1)C(=O)N[C@@H](Cc1ccccc1)[C@@H](O)[C@@H](NCc1ccccc1)C(=O)NC(CO)c1ccccc1 (stereo partly specified) :: not met
COc1ccc(CN[C@@H](C(=O)N[C@@H]2c3ccccc3CC2O)[C@H](O)[C@H](Cc2ccccc2)NC(=O)[C@@H](NC(=O)OCc2ccccc2)C(C)(C)C)cc1 (stereo partly specified) :: met
CC(C)[C@H](NC(=O)OCc1ccccc1)C(=O)N[C@@H](Cc1ccccc1)[C@@H](O)[C@@H](NCc1ccccc1)C(=O)N[C@H](C(=O)NCc1cccnc1)C(C)C :: met
CC(C)(C)OC(=O)N[C@@H](Cc1ccccc1)[C@@H](O)[C@@H](NCc1ccccc1)C(=O)NCc1ccccc1 :: not met

Task: Please check: Ki for CC(C)(C)[C@H](NC(=O)OCc1ccccc1)C(=O)N[C@@H](Cc1ccccc1)[C@@H](O)[C@@H](NCc1ccc(OCCN2CCOCC2)cc1)C(=O)NCc1ccccc1 , strictly under 100 nM or not?
Output: met

###

Below, each entry is listed alongside its reported pKi.
target: Human immunodeficiency virus type 1 protease (Human immunodeficiency virus 1, UniProt Q72874); assay: Inhibitory activity was determined against HIV type 1 protease
# pKi is unitless: minus log10 of the molar concentration; print number only

CC(C)[C@H](NC(=O)OCc1ccccc1)C(=O)N[C@@H](Cc1ccccc1)[C@@H](O)[C@@H](NCc1ccc(Br)cc1)C(=O)N[C@H](C(=O)NCc1nc2ccccc2[nH]1)C(C)C :: 7.82
CC(C)[C@H](NC(=O)COc1ccccc1)C(=O)N[C@@H](Cc1ccccc1)[C@@H](O)[C@@H](NCc1ccccc1)C(=O)NCc1ccccc1 :: 6.86
COc1ccc(CN[C@@H](C(=O)N[C@H](C(=O)NCc2nc3ccccc3[nH]2)C(C)C)[C@H](O)[C@H](Cc2ccccc2)NC(=O)[C@@H](N)C(C)(C)C)cc1 :: 8.11
COc1ccc(CN[C@@H](C(=O)NCC(O)c2ccccc2)[C@H](O)[C@H](Cc2ccccc2)NC(=O)[C@@H](NC(=O)OCc2ccccc2)C(C)C)cc1 (stereo partly specified) :: 5.60
CC(C)[C@H](NC(=O)OCc1ccccc1)C(=O)N[C@@H](Cc1ccccc1)[C@@H](O)[C@H](NCc1ccccc1)C(=O)N[C@H](C(=O)NCc1cccnc1)C(C)C :: 6.85

Task: Reported pKi for COc1ccc(CN[C@@H](C(=O)N[C@H](C(=O)Nc2ccc3c(c2)OCCO3)C(C)C)[C@H](O)[C@H](Cc2ccccc2)NC(=O)[C@@H](NC(=O)OCc2ccccc2)C(C)C)cc1 : what is it?
Output: 7.82
